# experiment notes: E. coli Tat export inhibitors, dose response, cherry-pick, set 2, plate reader (AID 504941)
# protocol conditions: E. coli Tat transport reporter; series mostly up to 38 µM
The campaign covered roughly 1,200 compounds. About 170 (14%) were called active. Only a sample is shown. Results with a measured potency or affinity are listed apart.

molecule	outcome
Cc1ccc(S(=O)(=O)N2CCOCC2)cc1NC(=O)c1cc2ccccc2oc1=O	inactive
CC(=O)NC1=NN(C(C)=O)C2(S1)C(=O)N(C(C)C)c1ccc(C)cc12 (configuration not stated)	inactive
COc1ccc(OC)c(S(=O)(=O)N2CCC(C(=O)NC3CC3)CC2)c1	inactive
CC(C)OCC(O)CN1CCN(CC(O)COc2ccc3c(c2)OCO3)CC1 (configuration not stated)	inactive
O=C(Nc1nc2c(s1)CCCC2)c1cccc(S(=O)(=O)N2CCCc3ccccc32)c1	inactive
Oc1c(Cl)cc(Cl)cc1C1Nc2ccccc2-n2cccc21 (configuration not stated)	inactive
CC(C)c1ccc(OCC(=O)NC2=NCCS2)cc1	inactive
COc1cc(S(=O)(=O)Nc2cc(C)cc(C)c2)ccc1F	inactive
CCN(C[C@H]1N[C@@](Cc2ccccc2)(C(=O)OC)[C@H]2C(=O)N(C)C(=O)[C@@H]12)C(C)=O	inactive
O=C(O)c1cn(-c2ccc(F)cc2)c2cc(N3CCNCC3)c(F)cc2c1=O	inactive
CCOC(=O)N1CCC(N(CCN(C)C)C(=S)Nc2ccc(Oc3ccccc3)cc2)CC1	inactive
O=C(O)c1cccc(NC(=O)c2ccccc2)c1	inactive
CCCN(Cc1ccccc1)C(=S)Nc1ccc(SC(F)F)cc1	inactive
Cc1ccccc1OCC(=O)Nc1nnc(-c2ccncc2)s1	inactive
Cc1ccnc(SCC(=O)c2cccs2)n1	inactive
CCn1c2ccc(C)cc2c2nnc(SCCN3CCOCC3)nc21	inactive
O=C(CNc1ccc(Cl)cc1)c1ccc(Br)cc1	inactive
O=C(O)c1ccc(N/N=C/c2ccc(-c3ccccc3)cc2)cc1	inactive
CCCN(C(=O)Cn1c(C(F)(F)F)nc2ccccc21)C1CCS(=O)(=O)C1 (configuration not stated)	inactive
COc1ccc(N(CC(=O)NCc2ccc(Cl)cc2)S(=O)(=O)c2ccccc2[N+](=O)[O-])c(OC)c1	inactive
COc1ccccc1-n1nc(C(=O)Nc2ccc3c(c2)OCO3)c2ccccc2c1=O	inactive
COc1ccccc1N1CCN(C(=O)c2cc3c(=O)n4ccccc4nc3s2)CC1	inactive

====

# experiment notes: E. coli Tat export inhibitors, dose response, cherry-pick, set 2, plate reader (AID 504941)
# protocol conditions: E. coli Tat transport reporter; series mostly up to 38 µM
Screen size: about 1,200 compounds; about 170 (14%) were called active. These entries were drawn from the full list. Measured potencies and affinities stand elsewhere.

compound	outcome
Cc1ccc(NC(=S)NCCC2=CCCCC2)cc1	inactive
COCCNc1nc(N)c([N+](=O)[O-])c(NCC2CCCO2)n1 (configuration not stated)	inactive
CC(C)(C)c1nn2cnnc2n(/N=C/c2cccc3ccccc23)c1=O	inactive
COC(=O)c1c(NC(=O)CCN2CCOCC2)sc2c1CCCC2	inactive
Oc1c(Br)cc(C2N=C(c3ccccc3)NO2)cc1Br (configuration not stated)	inactive
Nc1ccc(C(=O)Nc2nc3ccccc3s2)cc1	inactive
CC(NC(=O)c1ccc([N+](=O)[O-])cc1[N+](=O)[O-])c1ccc(-c2ccccc2)cc1 (configuration not stated)	inactive
Cc1nn(-c2ccccc2)c(C)c1NC(=O)COC(=O)c1ccc(Cl)c(S(N)(=O)=O)c1	inactive
O=C(CSc1nc2ccccc2c(=O)[nH]1)N1CCN(c2ccccc2F)CC1	inactive
Cc1noc(NS(=O)(=O)c2ccc(NC(=O)c3ccoc3C)cc2)c1C	inactive
CCOC(=O)c1cc(C)sc1NC(=O)C(c1ccccc1)c1ccccc1	inactive
COc1c2ccoc2nc2c(OC)c(OC[C@@H](O)C(C)(C)O)ccc12	inactive
COc1ccc(NS(=O)(=O)c2cc(NC(=O)CCc3ccc(OC)c(OC)c3)ccc2N2CCOCC2)cc1	inactive
Cc1ccc(-c2n[nH]c3c2C(c2ccccc2)N(c2ccc(C(=O)O)cc2)C3=O)cc1 (configuration not stated)	inactive
CC1COc2c(N3CCN(C)CC3)c(F)cc3c(=O)c(C(=O)O)cn1c23 (configuration not stated)	inactive
c1ccc2c(OCCCN3CCCCCC3)cccc2c1	inactive
CCn1cc(C(=O)O)c(=O)c2cc(F)c(N3CCN(C)CC3)cc21	inactive
CN(Cc1cn[nH]c1-c1ccc(-c2ccccc2)cc1)CC1CCOCC1	inactive
CCN(CC)S(=O)(=O)c1ccc(=O)n(CC(=O)N2Cc3ccccc3CC2C(N)=O)c1 (configuration not stated)	inactive
CCCCOCC1CN(c2ccccc2)C(=O)CS1 (configuration not stated)	inactive
Cc1ccc(C(=O)N2CCCC(CCC(=O)NCc3ccc(F)c(F)c3)C2)cn1 (configuration not stated)	inactive
C[C@@H]1CN(c2c(F)c(F)c3c(=O)c(C(=O)O)cn(C4CC4)c3c2F)C[C@H](C)N1	inactive

Attribution: PubChem BioAssay AID504941
